System: OVCAR-4 ovarian
protocol_text: NCI tumour cell line growth inhibition, 48 h
recorded_endpoint: TGI (µM)

compound="COC(=O)C(=O)C(C(=O)C(=O)Nc1ccc([N+](=O)[O-])cc1[N+](=O)[O-])c1nc2ccc(Cl)cc2[nH]c1=O (stereo not given)" censor_symbol=> value_observed=100
compound=CCN(CC)CCNC(=O)c1cc2cc(NC(=O)c3cc4cc(N)ccc4[nH]3)ccc2[nH]1 censor_symbol== value_observed=27.7
compound="O=P1(N(CCCl)CCCl)Oc2ccc(Cl)cc2Sc2c(ccc(Cl)c2Cl)O1 (stereo not given)" censor_symbol=> value_observed=100
compound="COC1(OC)CC2CCCCC2=C(C)N1S(=O)(=O)c1ccccc1 (stereo not given)" censor_symbol=> value_observed=100
compound=COc1ccc2c(c1)N=C(N)n1c(nc3ccccc31)S2 censor_symbol== value_observed=38.9
compound=CC(=O)OCCn1c(Cc2ccc(C)cc2)nn(C(C)=O)c1=O censor_symbol=> value_observed=100
compound="O=C1CSC(c2ccc([N+](=O)[O-])cc2)N1c1nc(-c2ccc3c(c2)CCCC3)cs1 (stereo not given)" censor_symbol=> value_observed=100
compound=O=C(CSc1ncnc2nc[nH]c12)c1ccccc1 censor_symbol=> value_observed=100
compound="Oc1ccc(C=NCC2CCCN3CCCCC23)cc1 (stereo not given)" censor_symbol== value_observed=42.3
compound="COC(=O)[C@]1(c2cc3ccccc3[nH]2)CC2CN(C(=O)OCc3ccccc3)C1C=C2OC (stereo not given in full)" censor_symbol== value_observed=98.8

###

System: ACHN renal
protocol_text: NCI tumour cell line growth inhibition, 48 h
Each entry below carries its reported TGI.
recorded_endpoint: TGI (µM)

compound="Nc1nc2ccc(NCc3ccc(C(=O)NC(CCC(=O)O)C(=O)O)cc3)cc2c(=O)[nH]1 (stereo not given)" recorded_endpoint=TGI reading_unit=µM censor_symbol== value_observed=39.9
compound=COc1ccc([C@H]2CC(=O)C[C@H](c3ccc(OC)cc3OC)C23C(=O)c2ccccc2C3=O)c(OC)c1 recorded_endpoint=TGI reading_unit=µM censor_symbol=> value_observed=100
compound=OCCCCOC(c1ccccc1)(c1ccccc1)c1ccccc1 recorded_endpoint=TGI reading_unit=µM censor_symbol=> value_observed=100
compound="OC1c2[nH]c3ccccc3c2CCN2CCCCC12 (stereo not given)" recorded_endpoint=TGI reading_unit=µM censor_symbol=> value_observed=100
compound="C[C@@H](CC(O)C1OC1(C)C)[C@@H]1CC[C@]2(C)C3=CCC4C(C)(C)C(O)CC[C@]4(C)C3CCC12C (stereo not given in full)" recorded_endpoint=TGI reading_unit=µM censor_symbol== value_observed=88.8

###

Test system: DMS 114 small cell lung
protocol_text: NCI tumour cell line growth inhibition, 48 h
recorded_endpoint: TGI

compound="O=C(OCCO)C1CC2CC1C1(C2)OCCO1 (stereo unspecified)" value_observed="> 100 µM"
compound=c1ccc2nc(-c3ccc4c(c3)OCO4)ccc2c1 value_observed="67.5 µM"
compound="O=c1[nH]ccc2c1ccn2C1CC(O)C(CO)O1 (stereo unspecified)" value_observed="> 100 µM"
compound="O=C(O)C1CCC(=O)N1C(=O)C(Cl)c1ccccc1 (stereo unspecified)" value_observed="> 100 µM"
compound=Cc1c(-c2c(C)c(=O)c3c(C(C)C)c(=O)c(=O)c(C=O)c-3c2=O)c(O)c2c(C=O)c(O)c(O)c(C(C)C)c2c1O value_observed="5.82 µM"
compound=CCn1c(=O)nc2n(-c3ccccc3)c3ccccc3nc-2c1=O value_observed="30.3 µM"

###

Listing of entries alongside the reported TGI.
Test system: K-562 leukemia
protocol_text: NCI tumour cell line growth inhibition, 48 h
recorded_endpoint: TGI

compound=COC(=O)Cc1c(-c2[nH]c3ccccc3c2CC(=O)OC)[nH]c2ccccc12 value_observed="> 100 µM"
compound=CCOC(=O)/C(=C/c1ccc(C(F)(F)F)cc1)N(CC)CC value_observed="> 100 µM"
compound="COC1(OC)CC2CCCCC2=C(C)N1S(=O)(=O)c1ccccc1 (centres undefined)" value_observed="> 100 µM"
compound="CC1CCC2(OC1)OC1CC3C4CCC5CC(O)CCC5(C)C4CC(=O)OC3(C)C1C2C (centres undefined)" value_observed="> 100 µM"
compound="OC1CCCCCCCCCCC1SCCCCl (centres undefined)" value_observed="> 100 µM"
compound="CC1(C)[C@@H]2CC[C@@]1(C)C1(SS1=O)C21Cc2ccccc2C1 (some centres undefined)" value_observed="51.6 µM"
compound=CCOP(=O)(CN1CCNCCN(CP(=O)(OCC)OCC)CC1)OCC value_observed="> 100 µM"
compound=O=c1oc2c3ccc4ccccc4c3n(CCCN3CCCCC3)c2c2ccccc12 value_observed="63.9 µM"
compound="COc1ccc(Cc2c(-c3ccc(C)cc3)n[nH]c(=O)c2C2C(=O)N(c3ccccc3)N=C2c2ccccc2)cc1 (centres undefined)" value_observed="> 76.6 µM"
compound=Cc1ccc(C(=O)CC(O)(C(F)(F)F)C(F)(F)F)cc1[N+](=O)[O-] value_observed="> 28.2 µM"
compound="COC(=O)C1=C(O)C(C(=O)OC)[C@]2(O)[C@@H](C(=O)OC)[C@H]1[C@H](C)[C@@H](c1ccccc1)[C@@H]2C(=O)OC (some centres undefined)" value_observed="> 100 µM"
compound="O=C1C(Cl)C(c2cc(Br)ccc2O)N1n1cnc2ccccc2c1=O (centres undefined)" value_observed="> 47.3 µM"
compound="CC1NOC(=O)C1N=Nc1ccccc1Br (centres undefined)" value_observed="52.8 µM"
compound=O=C(Nc1sccc1S(=O)(=O)c1ccc(Cl)cc1)c1ccc(Cl)cc1 value_observed="> 100 µM"
compound=COc1ccc(-c2nc(N3CCCC3)no2)cc1 value_observed="> 100 µM"
compound=O=C1c2c(c(-c3ccccc3)c(-c3ccccc3)c(-c3ccccc3)c2-c2ccccc2)C(=O)N1c1cccc(Br)c1 value_observed="> 100 µM"
compound="CC1(c2ccccc2)CCN(C2CC2)CO1 (centres undefined)" value_observed="> 100 µM"
compound="Oc1ccc(C=NCC2CCCN3CCCCC23)cc1 (centres undefined)" value_observed="> 100 µM"
compound="CC12CCCCC1C(=O)C2(Cl)Cl (centres undefined)" value_observed="4.37 µM"
compound=CCOC(=O)C(=Cc1ccccc1Cl)C(=O)OCC value_observed="5.28 µM"
compound=Cc1n[nH]c(=S)n1/N=C/c1ccc(-c2ccc(Cl)cc2)o1 value_observed="> 100 µM"
compound=C(CCCCc1nnc(N2CCOCC2)o1)CCCc1nnc(N2CCOCC2)o1 value_observed="> 100 µM"
compound="CCOC(=O)C(Br)(C(N)=O)C1(O)OC(c2ccccc2)=C(Br)C1=O (centres undefined)" value_observed="53.7 µM"
compound=COc1ccc(/C=C/C(=O)c2ccc(Cl)cc2Cl)cc1 value_observed="> 100 µM"
compound=O=[N+]([O-])c1ccc2sc(C=Nc3ccc(O)cc3)cc2c1 value_observed="43 µM"
compound=O=C(/C=C\Sc1ccccn1)c1cccc(Br)c1 value_observed="6.63 µM"
compound=COC(=O)c1c(C)c2n(c1C)C(=O)C(c1ccccc1)=C2 value_observed="> 100 µM"
compound="Fc1cccc(F)c1C1SCc2nc3cc4ccccc4cc3n21 (centres undefined)" value_observed="48.6 µM"
compound="C[C@@H](c1ccccc1)C(CC#N)[C@H]1CCC[C@]1(O)C#Cc1ccc2c(c1)OCO2 (some centres undefined)" value_observed="47.8 µM"
compound="O=C1CSC2=NC3=C(CSC/C3=C\\c3ccc(Cl)cc3)C(c3ccc(Cl)cc3)N12 (centres undefined)" value_observed="> 100 µM"
compound=CN(C)c1ccc(/C=C(\NC(=O)c2ccccc2)C(=O)Nc2ccccc2C(=O)NCc2ccccc2)cc1 value_observed="> 100 µM"
compound=CCc1cccc(C)c1NC(=O)CCc1n[nH]c(=S)o1 value_observed="> 100 µM"
compound=Cn1c(-c2cccc(N)c2)[n+](C)c2ccccc21 value_observed="> 100 µM"
compound="CCOC(=O)C(C)c1nc2cc(N3CCOCC3)c(F)cc2[nH]c1=O (centres undefined)" value_observed="> 100 µM"
compound=Cc1ccc(Nc2nc3ccccc3c(=O)n2N)cc1 value_observed="> 100 µM"
compound=CC12c3c4cccc3Oc3cc(N)cc(c31)Oc1cc(N)cc(c12)O4 value_observed="> 51.5 µM"
compound=CC(C)C[C@@H](NC(=O)[C@@H](Cc1cccc2ccccc12)NC(=O)N1CCOCC1)B(O)O value_observed="> 100 µM"
compound=Cc1ccc2cc3c(cc(C)c4ccccc43)c3c2c1CC3 value_observed="> 100 µM"
compound=Cn1c(=O)c2[nH]c(CSCc3ccccc3)nc2n(C)c1=O value_observed="> 100 µM"
compound=COc1cc2c(cc1O)CC[C@@H]1[C@@H]2CC[C@]2(C)[C@@H](OCCCN(C)C)CC[C@@H]12 value_observed="0.331 µM"
compound=COc1ccc(C(=O)c2cc(OC)c(OC)c(OC)c2)cc1OC(=O)C(Cl)(Cl)Cl value_observed="> 100 µM"
compound=COc1ccc(NC(=S)Nc2ccccc2)cc1 value_observed="> 100 µM"
compound=S=c1oc(CCCCCCCCc2nn(CNc3ccccc3)c(=S)o2)nn1CNc1ccccc1 value_observed="> 100 µM"
compound="NC(=S)C1=C(N)Oc2c(c(=O)oc3ccccc23)C1c1ccc(Br)cc1 (centres undefined)" value_observed="> 100 µM"
